Each entry below carries its reported melting point.

Some entries whose results are on file:
>>> print(df.to_string())
                                   compound   result_value
0  Cc1ccc(-c2c3n(c(=O)c4ncccc24)C[C@@H](C)CN(Cc2cc(C(F)(F)F)cc(C(F)(F)F)c2)C3=O)cc1 [Reference Example 68]  179 to 180 °C
1  C[C@H]1COc2nccc(-c3ccccc3)c2C(=O)N(Cc2ccccc2)C1 [Reference Example 124]  139 to 140 °C
2  COCc1cc(-c2ccccc2)c2c(n1)OCCN(Cc1cc(C(F)(F)F)cc(C(F)(F)F)c1)C2=O [Reference Example 94]  139 to 140 °C
3  CNCc1cc(-c2ccccc2)c2c(n1)OCCN(Cc1cc(C(F)(F)F)cc(C(F)(F)F)c1)C2=O [Reference Example 98]  152 to 154 °C
4  Cc1ccc(-c2c3n(c(=O)c4ncccc24)CCC(C)CN(Cc2cc(C(F)(F)F)cc(C(F)(F)F)c2)C3=O)cc1 (racemic) [Reference Example 70]  280 to 281 °C
5  CC(=O)OCc1cc(-c2ccccc2)c2c(n1)OCCN(Cc1cc(C(F)(F)F)cc(C(F)(F)F)c1)C2=O [Reference Example 91]  122 to 124 °C

Proceeding to the next compound to report its melting point.
# input Reported melting point, compound COc1cc(CN2C[C@H](C)CCn3c(c(-c4ccc(Cl)cc4)c4cccnc4c3=O)C2=O)cc(OC)c1 : ____
# output 229 to 230 °C

----------
Reported melting point by item:

Below: 6 molecules and their reported melting point.
>>> print(df.to_string())
                                   molecule  quantity_measured   result_value
0  Cc1cc(-c2ccccc2)c2c(n1)OCCCN(Cc1cc(C(F)(F)F)cc(C(F)(F)F)c1)C2=O [Reference Example 88]      melting point  164 to 165 °C
1  O=C(c1cc(-c2ccccc2)c2c(n1)OCCN(Cc1cc(C(F)(F)F)cc(C(F)(F)F)c1)C2=O)N1CCCCC1 [Reference Example 115]      melting point  218 to 220 °C
2  COc1cc(CN2CCCOc3nccc(-c4ccccc4)c3C2=O)cc(OC)c1OC [Reference Example 122]      melting point  155 to 156 °C
3  CS(=O)(=O)NCc1cc(-c2ccccc2)c2c(n1)OCCN(Cc1cc(C(F)(F)F)cc(C(F)(F)F)c1)C2=O [Reference Example 103]      melting point  194 to 195 °C
4  C[C@H]1CN(Cc2cc(C(F)(F)F)cc(C(F)(F)F)c2)C(=O)c2c(-c3ccccc3)c3cccnc3c(=O)n2C1 [Reference Example 67]      melting point  150 to 152 °C
5  O=C1c2c(-c3ccccc3)ccnc2OCCCN1Cc1cc(C(F)(F)F)cc(C(F)(F)F)c1 [Reference Example 76]      melting point  188 to 189 °C

# input Recorded melting point of COc1ccc(CN2CCOc3nccc(-c4ccccc4)c3C2=O)cc1OC [Reference Example 120] , please.
# output 175 to 176 °C

# input Query: melting point; subject: Cc1cnc2c(c1-c1ccccc1)C(=O)N(Cc1cc(C(F)(F)F)cc(C(F)(F)F)c1)CCCN(C)C2=O [Reference Example 108]
# output 247 to 249 °C

# input Which melting point is reported for this molecule? O=C1c2c(-c3ccccc3)cc(CCl)nc2OCCN1Cc1cc(C(F)(F)F)cc(C(F)(F)F)c1 [Reference Example 93]
# output 183 to 184 °C

# input Give the measured melting point of CNC(=O)c1cc(-c2ccccc2)c2c(n1)OCCN(Cc1cc(C(F)(F)F)cc(C(F)(F)F)c1)C2=O [Reference Example 112] .
# output 145 °C (dec.)

# input Would you kindly share the measured melting point for Cc1cc(-c2ccccc2)c2c(n1)OCCN(Cc1cc(C(F)(F)F)cc(C(F)(F)F)c1)C2=O [Reference Example 87] ?
# output 151 to 153 °C

# input Look up melting point: O=C1c2c(-c3ccccc3)ccnc2OCCN1Cc1ccc(Cl)c(Cl)c1 [Reference Example 119]
# output 189 to 192 °C

# input Fill blank: measured melting point of the molecule C[C@H]1CCn2c(c(-c3ccccc3)c3cccnc3c2=O)C(=O)N(Cc2cc(C(F)(F)F)cc(C(F)(F)F)c2)C1 [Reference Example 73] is ____.
# output 242 to 244 °C

# input Query: melting point; subject: Cc1ccc(-c2c3n(c(=O)c4ncccc24)CCN(Cc2cc(C(F)(F)F)cc(C(F)(F)F)c2)C3=O)cc1 [Reference Example 55]
# output 270 to 271 °C

----------
This listing pairs compounds with measured melting point.

                                   compound   result_value
0  Cc1ccc(-c2c3n(c(=O)c4ncccc24)CC[C@H](C)CN(Cc2cc(C(F)(F)F)cc(C(F)(F)F)c2)C3=O)cc1 [Reference Example 74]  227 to 228 °C
1  O=C1c2c(-c3ccccc3)ccnc2NCCN1Cc1cc(C(F)(F)F)cc(C(F)(F)F)c1 [Reference Example 75]  242 to 243 °C

# input State the recorded melting point for this entry: Cc1ccc(-c2c3n(c(=O)c4ncccc24)CCCN(Cc2cc(C(F)(F)F)cc(C(F)(F)F)c2)C3=O)cc1 [Reference Example 56]
# output 194 to 195 °C

# input Any idea what its melting point is? The compound is COc1cc(CN2C[C@H](C)CCn3c(c(-c4ccccc4)c4cccnc4c3=O)C2=O)cc(OC)c1 [Example 5]
# output 199 to 201 °C

# input State the recorded melting point for this entry: Cc1ccc(-c2ccnc3c2C(=O)N(Cc2cc(C(F)(F)F)cc(C(F)(F)F)c2)CCO3)cc1 [Reference Example 134]
# output 212 to 213 °C

# input Entry CCCCNC(=O)c1cc(-c2ccccc2)c2c(n1)OCCN(Cc1cc(C(F)(F)F)cc(C(F)(F)F)c1)C2=O [Reference Example 114] : reported melting point = ?
# output 194 to 196 °C

# input Entry O=C1c2c(-c3ccccc3)ccnc2OCCN1Cc1cc(C(F)(F)F)cc(C(F)(F)F)c1 [Reference Example 65] has what melting point?
# output 200 to 201 °C

----------
# Measured on: substance P receptor (Homo sapiens, UniProt P25103)
# Construct: The receptor was prepared from human lymphoblast cells (IM-9); endogenous in cells
# Sequence (P25103 whole entry): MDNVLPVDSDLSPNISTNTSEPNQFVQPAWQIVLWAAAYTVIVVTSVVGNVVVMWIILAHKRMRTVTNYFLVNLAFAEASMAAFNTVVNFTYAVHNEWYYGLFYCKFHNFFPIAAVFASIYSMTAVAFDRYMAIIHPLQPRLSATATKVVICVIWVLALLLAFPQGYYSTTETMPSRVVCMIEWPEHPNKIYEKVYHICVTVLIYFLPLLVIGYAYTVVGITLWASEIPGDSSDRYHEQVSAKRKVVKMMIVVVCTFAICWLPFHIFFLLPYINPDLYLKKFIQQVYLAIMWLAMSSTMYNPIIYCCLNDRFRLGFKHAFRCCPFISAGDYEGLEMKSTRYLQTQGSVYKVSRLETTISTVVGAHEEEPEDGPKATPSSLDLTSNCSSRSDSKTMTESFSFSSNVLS
# Measurement protocol: Radioligand receptor binding inhibitory activity using receptor from human lymphoblast cells (IM-9)
# Setup conditions: 125I-BHSP radioligand, receptor from IM-9 cells, 25° C. for 30 minutes
Reported pIC50 is given for each of the following compounds.
Units for pIC50: none; it is -log10 of a concentration expressed in mol/L.

In [3]: df
Out[3]:
                                   compound  quantity_measured  result_value
0  CC(=O)OCc1cc(-c2ccccc2)c2c(n1)OCCCN(Cc1cc(C(F)(F)F)cc(C(F)(F)F)c1)C2=O [Reference Example 92]              pIC50          9.13
1  Cc1cc(-c2ccccc2)c2c([n+]1[O-])OCCN(Cc1cc(C(F)(F)F)cc(C(F)(F)F)c1)C2=O [Reference Example 89]              pIC50          9.36
2  COc1cc(CN2C[C@H](C)CCn3c(c(-c4ccc(Cl)cc4)c4cccnc4c3=O)C2=O)cc(OC)c1 [Example 13]              pIC50          8.96
3  CN1CCN(Cc2cc(-c3ccccc3)c3c(n2)OCCN(Cc2cc(C(F)(F)F)cc(C(F)(F)F)c2)C3=O)CC1 [Reference Example 101]              pIC50          9.70
4  CC(=O)OCc1cc(-c2ccccc2)c2c(n1)OCCN(Cc1cc(C(F)(F)F)cc(C(F)(F)F)c1)C2=O [Reference Example 91]              pIC50          9.55
5  CCC1CCn2c(c(-c3ccc(C)cc3)c3cccnc3c2=O)C(=O)N(Cc2cc(C(F)(F)F)cc(C(F)(F)F)c2)C1 (racemic) [Example 15]              pIC50          8.96
6  COc1cc(CN2C[C@H](C)CCn3c(c(-c4ccccc4)c4cccnc4c3=O)C2=O)cc(OC)c1 [Example 5]              pIC50          9.32
7  C[C@@H]1CCn2c(c(-c3ccc(F)cc3)c3cccnc3c2=O)C(=O)N(Cc2cc(C(F)(F)F)cc(C(F)(F)F)c2)C1 [Example 14]              pIC50          9.43

# input Requested field: pIC50. Item: C[C@@H]1CCn2c(c(-c3ccc(CO)cc3)c3cccnc3c2=O)C(=O)N(Cc2cc(C(F)(F)F)cc(C(F)(F)F)c2)C1 [Reference Example 137]
# output 9.08

# input Quick check: pIC50 of Cc1ccc(-c2c3c(c(=O)n4c2C(=O)N(Cc2cc(C(F)(F)F)cc(C(F)(F)F)c2)CCCC4)CN(C)CC3)cc1 [Reference Example 64] ?
# output 9.18

# input Suppose we examine the compound CCOc1cc(CN2C[C@H](C)CCn3c(c(-c4ccc(C)cc4)c4cccnc4c3=O)C2=O)cc(OCC)c1 [Example 3] ; what pIC50 value has been reported?
# output 9.16

# input Consider the compound shown here: C[C@@H]1CCn2c(c(-c3ccc(Cl)c(Cl)c3)c3cccnc3c2=O)C(=O)N(Cc2cc(C(F)(F)F)cc(C(F)(F)F)c2)C1 [Example 7] What is its recorded pIC50?
# output 9.08

# input Which pIC50 reading was recorded for the compound Cc1cnc2c(c1-c1ccccc1)C(=O)N(Cc1cc(C(F)(F)F)cc(C(F)(F)F)c1)C[C@H](C)CO2 [Reference Example 85] ?
# output 9.44

# input Requested read-out: pIC50. Entry: COCc1cc(-c2ccccc2)c2c(n1)OCCN(Cc1cc(C(F)(F)F)cc(C(F)(F)F)c1)C2=O [Reference Example 94]
# output 9.77

# input GET /values?readout=pIC50&item= Cc1cnc2c(c1-c1ccccc1)C(=O)N(Cc1cc(C(F)(F)F)cc(C(F)(F)F)c1)CCO2 [Reference Example 77]
# output 8.96

# input Please report the recorded pIC50 for O=C1c2c(-c3ccccc3)c3cccnc3c(=O)n2CCCCN1Cc1cc(C(F)(F)F)cc(C(F)(F)F)c1 [Reference Example 62] .
# output 8.92
